# Measurement description: Pharmacokinetics in Sprague Dawley rats
# Assay type: in vivo, rat
# Condition set: Sprague Dawley, in vivo; rat; PO 10 mg/kg
Assay readout: Cmax (nM)
Give bare numbers, in nM.

Reference set, count: 2
chemical_string=Cc1ccc(C(=O)Nc2cccc3ccc(C)nc23)c(Cl)c1 assay_readout=Cmax measurement_unit=nM measured_result=1690
chemical_string=Cc1ccc2cccc(NC(=O)c3cccc(OC(C)C)c3)c2n1 assay_readout=Cmax measurement_unit=nM measured_result=800

Let us examine a further case.
Item COc1c(C)cccc1C(=O)Nc1cccc2ccc(C)nc12 has what recorded Cmax? 1250

---

# Measurement description: Pharmacokinetics in Beagle dogs
# Type: in vivo
# Condition set: male, Beagle, plasma; dog; PO 10 mg/kg
Assay readout: half-life (min)
One number for each entry, in min.

Item Cc1ccc2cccc(NC(=O)c3cccc(OC(C)C)c3)c2n1 has what recorded half-life? 22.2

---

# System: human islet microtissues
# Measurement description: Protection of human pancreatic islets under cytokine stress
# Assay type: cell-based
# Condition set: 168 h, compound 5 μM, cytokine cocktail IL1-β, IFN-γ, TNF-α, 7 days, read-out: increase in viability over baseline (total ATP content)
Could you please report measured viability at 5 µM for the items listed next?

chemical_string=Cc1ccc2cccc(NC(=O)c3ccc(OC(C)C)cc3)c2n1 target_under_test="human islet microtissues" measured_result="20 to 50%"
chemical_string=Cc1ccc(C(=O)Nc2cccc3ccc(C)nc23)c(Cl)c1 target_under_test="human islet microtissues" measured_result="10 to 20%"
chemical_string=CCNc1ccc(C(=O)Nc2cccc3ccc(C)nc23)cc1 target_under_test="human islet microtissues" measured_result="20 to 50%"
chemical_string=Cc1ccc2cccc(NC(=O)c3ccc(NC(C)C)cc3)c2n1 target_under_test="human islet microtissues" measured_result="20 to 50%"
chemical_string=Cc1ccc2cccc(NC(=O)c3ccc(N(C)C)cc3)c2n1 target_under_test="human islet microtissues" measured_result="> 50%"

Below are 2 compounds. Give each one its viability at 5 µM.
1. Cc1ccc2cccc(NC(=O)c3cccc(OC(C)C)c3)c2n1
2. COc1c(C)cccc1C(=O)Nc1cccc2ccc(C)nc12

["20 to 50%", "20 to 50%"]

---

# Measurement description: Pharmacokinetics in Sprague Dawley rats
# Assay type: in vivo, rat
# Condition set: Sprague Dawley, in vivo; rat; PO 10 mg/kg
Could you please report measured half-life for the items listed next?
Answers are plain numbers, in min.

chemical_string=Cc1ccc2cccc(NC(=O)c3cccc(OC(C)C)c3)c2n1 measurement_unit=min measured_result=22.8

Let us examine a further case.
Item COc1c(C)cccc1C(=O)Nc1cccc2ccc(C)nc12 has what recorded half-life? 26.4

---

# Measurement description: Pharmacokinetics in Sprague Dawley rats
# Type: in vivo, rat
# Condition set: Sprague Dawley, in vivo; rat; IV 2 mg/kg; read-out: AUC0-t
Could you please report measured AUC(0-t) for the items listed next?
Numbers only, in ng·h/mL.

Reference set, count: 2
chemical_string=COc1c(C)cccc1C(=O)Nc1cccc2ccc(C)nc12 measurement_unit=ng·h/mL measured_result=299
chemical_string=Cc1ccc2cccc(NC(=O)c3cccc(OC(C)C)c3)c2n1 measurement_unit=ng·h/mL measured_result=842

Let us examine a further case.
Item Cc1ccc(C(=O)Nc2cccc3ccc(C)nc23)c(Cl)c1 has what recorded AUC(0-t)? 380

---

# Measurement description: Pharmacokinetics in Beagle dogs
# Assay type: in vivo
# Condition set: male, Beagle, plasma; dog; IV 1 mg/kg
Assay readout: half-life (min)
Numbers only, in min.

Item Cc1ccc2cccc(NC(=O)c3cccc(OC(C)C)c3)c2n1 has what recorded half-life? 20.4

---

# Measurement description: Pharmacokinetics in Sprague Dawley rats
# Assay type: in vivo, rat
# Condition set: Sprague Dawley, in vivo; rat; IV 2 mg/kg
Assay readout: Tmax (min)
One number for each entry, in min.

Reference set, count: 2
chemical_string=Cc1ccc(C(=O)Nc2cccc3ccc(C)nc23)c(Cl)c1 measured_result=1.2
chemical_string=COc1c(C)cccc1C(=O)Nc1cccc2ccc(C)nc12 measured_result=1.2

Let us examine a further case.
Item Cc1ccc2cccc(NC(=O)c3cccc(OC(C)C)c3)c2n1 has what recorded Tmax? 4.8

---

# Measurement description: Pharmacokinetics in CD-1 mice
# Format: in vivo, mouse
# Condition set: mouse, plasma; CD-1 mice; 2 mg/kg i.v. or 10 mg/kg P.O.
Friendly reminder: half-life below 50 min is rule met, at or above is rule not met.

Examples with answers:
compound="Cc1ccc2cccc(NC(=O)c3ccc(NC(C)C)cc3)c2n1 [Compound C20]" class_assignment="rule met"
compound="Cc1ccc2cccc(NC(=O)c3ccc(OC(C)C)cc3)c2n1 [Compound A12]" class_assignment="rule met"
compound="CCNc1ccc(C(=O)Nc2cccc3ccc(C)nc23)cc1 [Compound C19]" class_assignment="rule not met"

We now examine a further compound.
I wonder whether Cc1ccc2cccc(NC(=O)c3ccc(C)s3)c2n1 [Compound G2] has half-life below 50 min. Can you tell? rule met

---

# Measurement description: Pharmacokinetics in Sprague Dawley rats
# Format: in vivo, rat
# Condition set: Sprague Dawley, in vivo; rat; IV 2 mg/kg
Assay readout: clearance (mL/min/kg)
One number for each entry, in mL/min/kg.

Below are 2 compounds. Give each one its clearance.
1. Cc1ccc2cccc(NC(=O)c3cccc(OC(C)C)c3)c2n1 [Compound A13]
2. COc1c(C)cccc1C(=O)Nc1cccc2ccc(C)nc12 [Compound A19]

1: 39.3; 2: 0.167

---

# Measurement description: Brain barrier penetration in mice
# Assay type: in vivo
# Condition set: mouse, brain/plasma, 10 mg/kg IP, 1 hr after dosing, read-out: brain/plasma ratio
Assay readout: Kp at 1 h
One number for each entry.

Item Cc1ccc2cccc(NC(=O)c3ccc(OC(C)C)cc3)c2n1 has what recorded Kp at 1 h? 2.6

---

# Measurement description: Pharmacokinetics in Beagle dogs
# Type: in vivo
# Condition set: male, Beagle, plasma; dog; IV 1 mg/kg
Assay readout: AUC(0-t) (ng·h/mL)
Answers are plain numbers, in ng·h/mL.

Item Cc1ccc2cccc(NC(=O)c3cccc(OC(C)C)c3)c2n1 has what recorded AUC(0-t)? 95

---

# Measurement description: Pharmacokinetics in CD-1 mice
# Format: in vivo, mouse
# Condition set: CD-1 mice; 10 mg/kg P.O. vs 2 mg/kg i.v.
Assay readout: F (%)
Answers are plain numbers, in %.

Reference set, count: 3
chemical_string=Cc1ccc2cccc(NC(=O)c3ccc(OC(C)C)cc3)c2n1 measured_result=2.3
chemical_string=Cc1ccc2cccc(NC(=O)c3ccc(N(C)C)cc3)c2n1 measured_result=35
chemical_string=Cc1ccc2cccc(NC(=O)c3cccc(OC(C)C)c3)c2n1 measured_result=3.1

Below are 5 compounds. Give each one its F.
1. Cc1ccc2cccc(NC(=O)c3ccc(Br)s3)c2n1
2. CCNc1ccc(C(=O)Nc2cccc3ccc(C)nc23)cc1
3. Cc1ccc2cccc(NC(=O)c3cc(Br)cs3)c2n1
4. Cc1ccc2cccc(NC(=O)c3ccc(NC(C)C)cc3)c2n1
5. Cc1ccc2cccc(NC(=O)c3ccc(C)s3)c2n1

[2.9, 27, 0.12, 28, 0.85]

---

Could you please report measured AUC(0-inf) for the items listed next?
# Measurement description: Pharmacokinetics in Sprague Dawley rats
# Format: in vivo, rat
# Condition set: Sprague Dawley, in vivo; rat; IV 2 mg/kg

Reference set, count: 2
chemical_string=COc1c(C)cccc1C(=O)Nc1cccc2ccc(C)nc12 measured_result="0.309 µg·h/mL"
chemical_string=Cc1ccc(C(=O)Nc2cccc3ccc(C)nc23)c(Cl)c1 measured_result="0.381 µg·h/mL"

Item Cc1ccc2cccc(NC(=O)c3cccc(OC(C)C)c3)c2n1 has what recorded AUC(0-inf)? 0.847 µg·h/mL

---

# Measurement description: Pharmacokinetics in CD-1 mice
# Type: in vivo, mouse
# Condition set: mouse, plasma; CD-1 mice; 2 mg/kg i.v. or 10 mg/kg P.O.
Assay readout: half-life (min)
One number for each entry, in min.

Reference set, count: 2
compound="Cc1ccc2cccc(NC(=O)c3cc(Br)cs3)c2n1 [Compound G8]" measured_result=36
compound="Cc1ccc2cccc(NC(=O)c3ccc(N(C)C)cc3)c2n1 [Compound C18]" measured_result=53.4

Let us examine a further case.
Item Cc1ccc2cccc(NC(=O)c3ccc(Br)s3)c2n1 [Compound B1] has what recorded half-life? 42

---

# Measurement description: Pharmacokinetics in Sprague Dawley rats
# Format: in vivo, rat
# Condition set: Sprague Dawley, in vivo; rat; IV 2 mg/kg
Assay readout: Cmax
Mention the unit after the number when you answer.

chemical_string=Cc1ccc(C(=O)Nc2cccc3ccc(C)nc23)c(Cl)c1 assay_readout=Cmax measured_result="4.42 µM"
chemical_string=COc1c(C)cccc1C(=O)Nc1cccc2ccc(C)nc12 assay_readout=Cmax measured_result="3.85 µM"

Let us examine a further case.
Item Cc1ccc2cccc(NC(=O)c3cccc(OC(C)C)c3)c2n1 has what recorded Cmax? 8.37 µM

Where do these numbers come from? They come from patent US11890279B2.
